Assay: folding stability dG unfold (combined trypsin and chymotrypsin); higher = more stable
Reported folding stability dG unfold is given for each of the following sequences.

Solved entries (count: 2):
Could you please provide reported folding stability dG unfold for SAGGSAKVTVDEKDLKVTVESNIPVLVTYTLPGGKKKPFAGYLPPEKIEEFAKKEAEKFATELLGKSAGGSA [r15_365_TrMRF] ? Thanks! < -1 kcal/mol

Could you please provide reported folding stability dG unfold for SAGGSAGGRIRDPDGNPFKIKKVEPQPSPNGQPMIKFRYPDNGKEHTIPRDNLPPWLPDNAKPVSAGGSAGG [r6_371_TrROS] ? Thanks! < -1 kcal/mol

Now take the following sequence into account.
Could you please provide reported folding stability dG unfold for SAGGSAGGSAGGPDIKEAKPGLYPDKPVIYFKLPDREVVLFPGPKERFVKFGDKVLKIPSAGGSAGGSAGGS [r10_559_TrMRF] ? Thanks! < -1 kcal/mol
